- Target Of Assay: Epidermal growth factor receptor (Homo sapiens, UniProt P00533, 746-750DEL/C797S/T790M)
- Sequence (P00533 whole entry, looked up, stated change not applied): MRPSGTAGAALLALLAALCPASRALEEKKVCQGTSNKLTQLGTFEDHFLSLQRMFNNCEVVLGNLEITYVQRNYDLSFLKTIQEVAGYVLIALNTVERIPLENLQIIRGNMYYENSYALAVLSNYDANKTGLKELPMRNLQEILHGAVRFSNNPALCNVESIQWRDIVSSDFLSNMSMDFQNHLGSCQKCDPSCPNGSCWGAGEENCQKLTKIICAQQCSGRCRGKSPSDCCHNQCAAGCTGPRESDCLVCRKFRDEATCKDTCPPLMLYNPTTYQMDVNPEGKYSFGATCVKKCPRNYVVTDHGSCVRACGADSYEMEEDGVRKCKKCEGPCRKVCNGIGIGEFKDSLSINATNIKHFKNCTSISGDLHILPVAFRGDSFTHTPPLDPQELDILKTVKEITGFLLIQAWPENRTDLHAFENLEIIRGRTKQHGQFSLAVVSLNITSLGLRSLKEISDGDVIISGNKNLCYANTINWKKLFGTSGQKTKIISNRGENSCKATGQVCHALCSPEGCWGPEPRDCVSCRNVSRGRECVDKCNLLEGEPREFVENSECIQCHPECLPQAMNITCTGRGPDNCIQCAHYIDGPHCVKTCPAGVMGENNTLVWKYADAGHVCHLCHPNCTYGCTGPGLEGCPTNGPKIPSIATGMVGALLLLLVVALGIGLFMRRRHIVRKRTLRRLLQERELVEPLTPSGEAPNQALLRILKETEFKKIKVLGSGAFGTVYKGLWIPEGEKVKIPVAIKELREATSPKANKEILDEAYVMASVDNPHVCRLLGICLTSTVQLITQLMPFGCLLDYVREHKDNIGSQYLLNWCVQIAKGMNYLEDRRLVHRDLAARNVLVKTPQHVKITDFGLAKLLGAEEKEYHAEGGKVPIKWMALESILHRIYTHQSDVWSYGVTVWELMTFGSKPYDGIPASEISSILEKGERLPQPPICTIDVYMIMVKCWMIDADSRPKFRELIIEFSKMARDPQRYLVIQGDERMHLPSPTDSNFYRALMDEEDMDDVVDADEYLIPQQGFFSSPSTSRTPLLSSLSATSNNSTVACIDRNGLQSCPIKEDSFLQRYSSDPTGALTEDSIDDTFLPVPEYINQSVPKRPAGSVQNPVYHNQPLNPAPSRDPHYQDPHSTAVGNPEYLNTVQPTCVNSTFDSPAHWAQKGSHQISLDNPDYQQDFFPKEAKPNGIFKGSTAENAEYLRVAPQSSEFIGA
- Assay Method Text: Inhibition of EGFR d746-750/T790M/C797S triple mutant (unknown origin)
Listed below: IC50 values for each entry.

Short answer for C=CC(=O)N1CCCCCCCCCn2cc(c3ccccc32)-c2ccnc(n2)Nc2cccc1c2 : IC50 was > 100 nM

Short answer for C=CC(=O)N1CCCCCCn2cc(c3ccccc32)-c2ccnc(n2)Nc2cc1c(OCCCF)cc2F : IC50 was > 100 nM

Short answer for C=CC(=O)N1CCCCCCn2cc(c3ccccc32)-c2ccnc(n2)Nc2cc1ccc2F : IC50 was > 100 nM

Short answer for C=CC(=O)N1CCCCCCn2cc(c3ccccc32)-c2ccnc(n2)Nc2cc1ccc2OC : IC50 was > 100 nM

Short answer for C=CC(=O)N1CCCCCCCCn2cc(c3ccccc32)-c2ccnc(n2)Nc2cccc1c2 : IC50 was 86.5 nM

Short answer for C=CC(=O)N1CCCCCCCn2cc(c3ccccc32)-c2ccnc(n2)Nc2cc1ccc2OC : IC50 was > 100 nM

Short answer for C=CC(=O)N1CCCCCCCn2cc(c3ccccc32)-c2ccnc(n2)Nc2cccc1c2 : IC50 was 55.3 nM

Short answer for C=CC(=O)N1CCCCCCCn2cc(c3ccccc32)-c2ccnc(n2)Nc2cc1c(OCCCF)cc2F : IC50 was > 100 nM

* * *

- Test system: BaF3
- Assay Method Text: Antiproliferative activity against mouse BaF3 cells harboring EGFR del19/T790M double mutant assessed as inhibition of cell growth incubated for 72 hrs by CCK-8 assay
- Assay type: functional, cell-based
- Run Conditions: BaF3, 72 h
pIC50: −log10 of the molar value.
Property Label: pIC50

# annotated cases, reported pIC50 shown
C=CC(=O)N1CCCCCCCn2cc(c3ccccc32)-c2ccnc(n2)Nc2cc1ccc2F | 6.67
C=CC(=O)N1CCCCCCn2cc(c3ccccc32)-c2ccnc(n2)Nc2cccc1c2 | 6.67
C=CC(=O)N1CCCCCCCn2cc(c3ccccc32)-c2ccnc(n2)Nc2cccc1c2 | 6.66
C=CC(=O)N1CCCCCCCn2cc(c3ccccc32)-c2ccnc(n2)Nc2cc1ccc2OC | 6.83
C=CC(=O)N1CCCCCCn2cc(c3ccccc32)-c2ccnc(n2)Nc2cc1ccc2OC | 7.29
C=CC(=O)Nc1cc(Nc2nccc(-c3cn(C)c4ccccc34)n2)c(OC)cc1N(C)CCN(C)C | 7.48

A: C=CC(=O)N1CCCCCCn2cc(c3ccccc32)-c2ccnc(n2)Nc2cc1c(OCCCF)cc2F
B: C=CC(=O)N1CCCCCCn2cc(c3ccccc32)-c2ccnc(n2)Nc2cc1ccc2F
Which value of pIC50 is greater, the one for A or the one for B ? Your answer should be the label of the entry you select. B

* * *

- Target Of Assay: Epidermal growth factor receptor (Homo sapiens, UniProt P00533, L858R/T790M)
- Sequence (P00533 25-1210 T790M/L858R limits assumed): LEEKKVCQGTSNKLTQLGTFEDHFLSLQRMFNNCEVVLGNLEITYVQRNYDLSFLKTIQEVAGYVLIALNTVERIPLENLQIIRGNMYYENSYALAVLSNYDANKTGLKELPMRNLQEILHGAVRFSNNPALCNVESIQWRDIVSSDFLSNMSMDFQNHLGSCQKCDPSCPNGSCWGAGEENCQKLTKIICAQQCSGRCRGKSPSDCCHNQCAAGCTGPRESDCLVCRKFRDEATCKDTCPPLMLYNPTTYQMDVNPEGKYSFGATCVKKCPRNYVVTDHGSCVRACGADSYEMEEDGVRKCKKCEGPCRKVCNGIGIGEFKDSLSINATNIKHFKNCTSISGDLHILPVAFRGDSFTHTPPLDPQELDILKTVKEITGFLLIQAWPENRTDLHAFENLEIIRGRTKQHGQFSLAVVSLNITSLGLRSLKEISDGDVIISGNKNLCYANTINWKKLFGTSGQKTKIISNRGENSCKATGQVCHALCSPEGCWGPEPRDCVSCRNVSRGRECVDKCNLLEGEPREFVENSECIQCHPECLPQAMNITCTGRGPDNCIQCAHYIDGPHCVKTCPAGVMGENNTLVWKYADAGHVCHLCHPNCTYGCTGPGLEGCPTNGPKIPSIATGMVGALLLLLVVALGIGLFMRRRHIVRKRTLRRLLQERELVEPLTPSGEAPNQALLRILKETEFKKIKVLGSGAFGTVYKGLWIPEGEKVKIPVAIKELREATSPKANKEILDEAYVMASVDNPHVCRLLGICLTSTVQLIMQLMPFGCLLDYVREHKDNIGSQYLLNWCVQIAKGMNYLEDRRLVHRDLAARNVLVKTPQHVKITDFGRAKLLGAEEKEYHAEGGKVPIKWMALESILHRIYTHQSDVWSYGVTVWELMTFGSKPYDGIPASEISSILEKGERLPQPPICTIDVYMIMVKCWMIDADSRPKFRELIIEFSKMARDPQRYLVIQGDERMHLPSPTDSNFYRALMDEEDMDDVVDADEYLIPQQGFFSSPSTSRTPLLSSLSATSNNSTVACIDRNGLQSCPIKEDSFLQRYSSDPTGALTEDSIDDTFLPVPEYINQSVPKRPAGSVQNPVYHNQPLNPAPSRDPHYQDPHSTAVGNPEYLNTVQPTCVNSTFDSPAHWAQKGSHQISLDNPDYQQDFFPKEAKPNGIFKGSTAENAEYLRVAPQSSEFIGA
- Assay Method Text: Inhibition of EGFR L858R/T790M double mutant (unknown origin)
pIC50: −log10 of the molar value.
Property Label: pIC50

# annotated cases, reported pIC50 shown
C=CC(=O)N1CCCCCCCn2cc(c3ccccc32)-c2ccnc(n2)Nc2cc1c(OCCCF)cc2F | 7.59
C=CC(=O)N1CCCCCCn2cc(c3ccccc32)-c2ccnc(n2)Nc2cc1ccc2OC | 8.08
C=CC(=O)N1CCCCCCn2cc(c3ccccc32)-c2ccnc(n2)Nc2cc1c(OCCCF)cc2F | 7.88
C=CC(=O)N1CCCCCCn2cc(c3ccccc32)-c2ccnc(n2)Nc2cc1ccc2F | 8.19
C=CC(=O)N1CCCCCCCCCn2cc(c3ccccc32)-c2ccnc(n2)Nc2cccc1c2 | 7.60

A: C=CC(=O)N1CCCCCCCn2cc(c3ccccc32)-c2ccnc(n2)Nc2cc1ccc2OC
B: C=CC(=O)N1CCCCCCCCn2cc(c3ccccc32)-c2ccnc(n2)Nc2cccc1c2
C: C=CC(=O)N1CCCCCCCn2cc(c3ccccc32)-c2ccnc(n2)Nc2cccc1c2
Order the records so the highest pIC50 appears first and the lowest last. Rank them, then answer with their labels in that order. C, A, B
